Hello, the source for this data is patent US4175081A, in case you need it.

- Tested on: Turnip (TP)
- TEST_SUMMARY: Post-emergence herbicide test
- Type: in vivo, Brassica sp.
- CONDITION_NOTES: Brassica rapa, post-emergence, 336 h; 0.5 lb/acre; two weeks after treatment
OBSERVATION_TYPE: pest or weed control at 560.425 g/ha (%)
Could you give me the number in %? Just the number is fine.

INSERT INTO results (cpd_smiles, observation_type, reported_measurement) VALUES
  ('CCCCS(=O)(=O)c1nnc(N(C)C(=O)NC)s1', 'pest or weed control at 560.425 g/ha', 100);

Req: Could you tell me which pest or weed control at 560.425 g/ha is on file for CCS(=O)(=O)c1nnc(N(C)C(=O)NC)s1 ?
Resp: 100

Req: Could you tell me which pest or weed control at 560.425 g/ha is on file for CCCCSc1nnc(N(C)C(=O)NC)s1 ?
Resp: 90

Req: Could you tell me which pest or weed control at 560.425 g/ha is on file for CCSc1nnc(N(C)C(=O)NC)s1 ?
Resp: 100

###

The following molecules are shown together with reported pest or weed control at 2241.7 g/ha values.
- Tested on: Cotton (CT)
- TEST_SUMMARY: Pre-emergence herbicide test
- Assay type: in vivo, Gossypium hirsutum var. DPL smooth leaf
- CONDITION_NOTES: Gossypium hirsutum, 336 h, 2 lb/acre, two weeks after treatment
Could you give me the number in %? Just the number is fine.

Req: Could you tell me which pest or weed control at 2241.7 g/ha is on file for CCCS(=O)(=O)c1nnc(NC(=O)NC)s1 ?
Resp: 100

Req: Could you tell me which pest or weed control at 2241.7 g/ha is on file for CCS(=O)(=O)c1nnc(N(C)C(=O)NC)s1 ?
Resp: 50

Req: Could you tell me which pest or weed control at 2241.7 g/ha is on file for CCCSc1nnc(N(C)C(=O)NC)s1 ?
Resp: 50

###

The following compounds are shown together with reported pest or weed control at 8966.8 g/ha values.
- Test system: Corn (CN)
- TEST_SUMMARY: Post-emergence herbicide test
- Type: in vivo
- CONDITION_NOTES: Zea mays, 336 h, 8 lb/acre, two weeks after treatment
Could you give me the number in %? Just the number is fine.

INSERT INTO results (cpd_smiles, readout_units, reported_measurement) VALUES
  ('CNC(=O)N(C)c1nnc(C(C)(C)C)s1', '%', 100),
  ('CNC(=O)Nc1nnc(-c2ccc(C)cc2)s1', '%', 30),
  ('CNC(=O)N(C)c1nnc(C(F)(F)F)s1', '%', 100);

Could you now consider this next compound?
Req: Could you tell me which pest or weed control at 8966.8 g/ha is on file for CCNC(=O)Nc1nnc(SC)s1 ?
Resp: 20

###

- System: Johnson grass (JG)
- TEST_SUMMARY: Pre-emergence herbicide test
- Assay type: in vivo, Sorgum helepense
- CONDITION_NOTES: Sorghum halepense, 336 h, 1 lb/acre, two weeks after treatment
- Procedure: Johnson grass (JG)--Sorgum helepense All crop and weed species were planted individually in 3' plastic pots containing potting soil. Four seeds each of corn, cotton, and snapbeans were seeded to a depth equal to the diameter of the seed. All other species were surface seeded and sprinkled with screened soil in an amount sufficient to cover the seed. Immediately after planting, all pots were watered by sub-irrigation in greenhouse trays. […]
OBSERVATION_TYPE: pest or weed control at 1120.85 g/ha (%)
Could you give me the number in %? Just the number is fine.

INSERT INTO results (cpd_smiles, observation_type, readout_units, reported_measurement) VALUES
  ('CCS(=O)(=O)c1nnc(N(C)C(=O)NC)s1', 'pest or weed control at 1120.85 g/ha', '%', 50),
  ('CCCCSc1nnc(N(C)C(=O)NC)s1', 'pest or weed control at 1120.85 g/ha', '%', 10);

Req: Could you tell me which pest or weed control at 1120.85 g/ha is on file for CCSc1nnc(N(C)C(=O)NC)s1 ?
Resp: 50

Req: Could you tell me which pest or weed control at 1120.85 g/ha is on file for CCCCS(=O)(=O)c1nnc(N(C)C(=O)NC)s1 ?
Resp: 10

Req: Could you tell me which pest or weed control at 1120.85 g/ha is on file for CCCCCCCCSc1nnc(NC(=O)NC)s1 ?
Resp: 0
